Below, each of the binders is paired with its reported Activity (parent/mutant) value.
# MEASURED_ON: T1, Human IL-23 (human, UniProt Q9NPF7 20-189; P29460 23-328)
# T1 construct: Heterodimer of p40 and p19; For the crystal it was secreted from insect cells from a bi-cistronic construct; also called interleukin 23; human recombinant IL-23
# T1 sequence (looked up) 1: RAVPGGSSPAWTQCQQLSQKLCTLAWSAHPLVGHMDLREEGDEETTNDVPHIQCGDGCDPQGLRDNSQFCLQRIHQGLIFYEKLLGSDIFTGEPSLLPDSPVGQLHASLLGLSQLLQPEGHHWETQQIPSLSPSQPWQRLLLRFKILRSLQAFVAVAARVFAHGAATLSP
# T1 sequence (looked up) 2: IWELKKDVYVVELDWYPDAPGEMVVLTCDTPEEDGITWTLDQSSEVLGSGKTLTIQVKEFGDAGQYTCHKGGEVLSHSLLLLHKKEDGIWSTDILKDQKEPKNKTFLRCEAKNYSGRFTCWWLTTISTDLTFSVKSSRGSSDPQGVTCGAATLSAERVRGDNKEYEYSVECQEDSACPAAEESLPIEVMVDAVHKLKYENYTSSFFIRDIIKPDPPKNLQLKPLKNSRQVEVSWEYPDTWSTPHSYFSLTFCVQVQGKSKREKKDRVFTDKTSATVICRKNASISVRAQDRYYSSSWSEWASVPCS
# METHOD_SUMMARY: competitive ELISA, ratio of IC50 against parent 1454B08

BINDER: 1454B08 Y73→A (designed binder, Point variant of 1454B08) MGVSDVPRDLEVVAATPTSLLISWEHDYPYRRYYRITYGETGGNSPVQEFTVPKDVDTATISGLKPGVDYTITVAAVTSSYKYDMQYSPISINYRTEIDKPSQHHHHHH
Activity (parent/mutant): 1.5
--
BINDER: 1454B08 P87→A (designed binder, Point variant of 1454B08) MGVSDVPRDLEVVAATPTSLLISWEHDYPYRRYYRITYGETGGNSPVQEFTVPKDVDTATISGLKPGVDYTITVYAVTSSYKYDMQYSAISINYRTEIDKPSQHHHHHH
Activity (parent/mutant): 0.1
--
BINDER: 1454B08 Y73→Q (designed binder, Point variant of 1454B08; also called Tyr 73→Gln) MGVSDVPRDLEVVAATPTSLLISWEHDYPYRRYYRITYGETGGNSPVQEFTVPKDVDTATISGLKPGVDYTITVQAVTSSYKYDMQYSPISINYRTEIDKPSQHHHHHH
Activity (parent/mutant): 3.8
--
BINDER: 1454B08 Y73→R (designed binder, Point variant of 1454B08) MGVSDVPRDLEVVAATPTSLLISWEHDYPYRRYYRITYGETGGNSPVQEFTVPKDVDTATISGLKPGVDYTITVRAVTSSYKYDMQYSPISINYRTEIDKPSQHHHHHH
Activity (parent/mutant): 0.8
